Assay: in vitro
Details: mouse, microsomes, pH 7.4, MLM CLint (uL/min/mg), mouse liver microsomes
Decide using microsomal CLint at 0.5 μM alone. Strictly below 100 µL/min/mg: MET. Equal to or above 100 µL/min/mg: NOT MET.

{"columns": ["Molecule", "Label"],
 "data": [
  ["COc1ccc(-c2nc(C)no2)cc1S(=O)(=O)N(Cc1ccc(F)cc1)Cc1ccc(F)cc1", "NOT MET"],
  ["N#Cc1ccc(O)c(S(=O)(=O)N(Cc2ccc(F)cc2)Cc2ccc(F)cc2)c1", "NOT MET"],
  ["COCCN(Cc1ccc(F)cc1)S(=O)(=O)c1cc(C(=O)N2CCOCC2)ccc1OC", "MET"],
  ["COc1ccc(S(N)(=O)=O)cc1S(=O)(=O)NCc1ccccc1", "MET"],
  ["COc1ccc(Cl)cc1S(=O)(=O)N(Cc1ccccc1)C(CO)c1ccc(F)cc1 (stereo not shown)", "MET"],
  ["COc1ccc(Cl)cc1S(=O)(=O)N(Cc1ccccc1)C1COC(=O)OC1", "NOT MET"],
  ["COc1ccc(CN(Cc2ccc(F)cc2)S(=O)(=O)c2cc(F)ccc2OCCN(C)C)cc1", "NOT MET"],
  ["COc1ccc(Cl)cc1S(=O)(=O)N(Cc1ccccc1)C(CO)CO", "NOT MET"],
  ["COc1ccc(C(=O)N2CCOCC2)cc1S(=O)(=O)N(Cc1ccccc1)CC(C)(C)C", "NOT MET"],
  ["COc1ccc(C(=O)N2CCOCC2)cc1S(=O)(=O)N(Cc1ccc(F)cc1)Cc1ccc(F)cc1", "NOT MET"],
  ["COc1ccc(Cl)cc1S(=O)(=O)N(Cc1ccccc1)CC(O)c1ccc(F)cc1 (stereo not shown)", "NOT MET"],
  ["COc1ccc(C(=O)N2CCOCC2)cc1S(=O)(=O)N(C)Cc1ccc(F)cc1", "MET"],
  ["COCCN(Cc1ccccc1)S(=O)(=O)c1cc(C(=O)NC2COC2)ccc1OC", "NOT MET"],
  ["O=S(=O)(c1cccnc1N1CCOCC1)N(Cc1ccc(F)cc1)Cc1ccc(F)cc1", "NOT MET"],
  ["COCCOCN1CNc2cc(OC)c(S(=O)(=O)N(Cc3ccccc3)Cc3ccccc3)cc2S1(=O)=O", "NOT MET"],
  ["COc1ccc(OC)c(S(=O)(=O)N(Cc2ccc(F)cc2)C2CCOCC2)c1", "NOT MET"]
]}

====

Quick reference for solubility kinetic among some compounds
Assay: physchem
Details: aqueous medium, pH 2.0, pH 2

{"columns": ["Item Smiles", "solubility kinetic, µg/mL"],
 "data": [
  ["COc1ccc(C(=O)N2CCOCC2)cc1S(=O)(=O)N(Cc1ccc(F)cc1)Cc1ccc(C(F)(F)F)nc1", 3.8],
  ["COc1ccc(C(=O)N2CCOCC2)cc1S(=O)(=O)N(Cc1ccccc1)Cc1cnc(C(F)(F)F)nc1", 11.3]
]}

====

Quick reference for SI (vs PMM) among some compounds
Tested on: primary peritoneal mouse macrophages (PMM)
Conditions: PMM IC50 / L. infantum IC50

{"columns": ["Compound", "Assayed Target", "SI (vs PMM)"],
 "data": [
  ["COc1ccc(OC)c(S(=O)(=O)NCc2ccccc2)c1", "primary peritoneal mouse macrophages (PMM)", 1],
  ["CCc1c(C(=O)N2CCc3ccc(S(=O)(=O)NC)cc32)[nH]c(C)c1C(C)=O", "primary peritoneal mouse macrophages (PMM)", 1],
  ["CCN(Cc1ccccc1)S(=O)(=O)c1cc(F)ccc1F", "primary peritoneal mouse macrophages (PMM)", 2],
  ["CCN(Cc1ccccc1)S(=O)(=O)c1ccc(C)cc1", "primary peritoneal mouse macrophages (PMM)", 1],
  ["CCN(Cc1ccccc1)S(=O)(=O)c1ccc(NC(C)=O)cc1", "primary peritoneal mouse macrophages (PMM)", 1],
  ["CCN(Cc1ccccc1)S(=O)(=O)c1cc(F)ccc1OC", "primary peritoneal mouse macrophages (PMM)", 6],
  ["CCC(Cc1ccccc1)Sc1nc(C)cc(C)c1C#N (stereo not shown)", "primary peritoneal mouse macrophages (PMM)", 15],
  ["COc1cc(C)c(C)cc1S(=O)(=O)NC1CCCCC1", "primary peritoneal mouse macrophages (PMM)", 1],
  ["COc1ccc(S(=O)(=O)N(C)C)cc1NC(=O)Cn1c(=O)oc2ccccc21", "primary peritoneal mouse macrophages (PMM)", 1],
  ["CCN(Cc1ccccc1)S(=O)(=O)c1cc(Cl)ccc1OC", "primary peritoneal mouse macrophages (PMM)", 12],
  ["CONS(=O)(=O)c1cc(Cl)ccc1OC", "primary peritoneal mouse macrophages (PMM)", 1],
  ["COCCN(Cc1ccccc1)S(=O)(=O)c1ccc(NC(C)=O)cc1", "primary peritoneal mouse macrophages (PMM)", 1],
  ["CC(=O)Nc1ccc(S(=O)(=O)N(CCN(C)C)Cc2ccccc2)cc1", "primary peritoneal mouse macrophages (PMM)", 1],
  ["CCN(Cc1ccccc1)S(=O)(=O)c1cc(OC)ccc1OC", "primary peritoneal mouse macrophages (PMM)", 25],
  ["CCCCCOc1cc(C)c(C)cc1S(=O)(=O)NC1CC(C)(C)NC(C)(C)C1", "primary peritoneal mouse macrophages (PMM)", 7],
  ["CCN(Cc1ccccc1)S(=O)(=O)c1ccccc1C#N", "primary peritoneal mouse macrophages (PMM)", 2],
  ["COc1ccc(OC)c(S(=O)(=O)N(Cc2ccc(F)cc2)Cc2ccc(F)cc2)c1", "primary peritoneal mouse macrophages (PMM)", 119],
  ["COc1ccc(F)cc1S(=O)(=O)N(Cc1ccccc1)Cc1ccccc1", "primary peritoneal mouse macrophages (PMM)", 47],
  ["CCCCCOc1cc(C)c(Cl)cc1S(=O)(=O)NCc1ccco1", "primary peritoneal mouse macrophages (PMM)", 30],
  ["CCN(CC)S(=O)(=O)c1ccc(OC)c(NC(=O)CNc2cccc3c2CCCC3)c1", "primary peritoneal mouse macrophages (PMM)", 1],
  ["O=S(=O)(NCc1ccccc1)c1ccccc1", "primary peritoneal mouse macrophages (PMM)", 1],
  ["CCOc1cc(S(=O)(=O)N(Cc2ccccc2)Cc2ccccc2)c(OCC)cc1C", "primary peritoneal mouse macrophages (PMM)", 37]
]}

====

Test: physchem
Settings: HPLC, Ascentis Express RP Amide column, pH 7.4, eLogD, experimental
# if value of chromatographic logD reaches 4, tag Met; if it stays below, tag Not met

{"columns": ["Compound", "Label"],
 "data": [
  ["COc1ccc(Cl)cc1S(=O)(=O)N(Cc1ccccc1)C(Cc1ccccc1)C(N)=O (centres unmarked)", "Met"],
  ["COc1ccc(N2CCOCC2)cc1S(=O)(=O)N(Cc1ccc(F)cc1)Cc1ccc(F)cc1", "Met"],
  ["O=S(=O)(c1ccccc1Br)N(Cc1ccccc1)C(CO)Cc1ccccc1 (centres unmarked)", "Met"],
  ["O=S(=O)(NCc1ccccc1)c1cc2c(cc1Cl)NCN(Cc1ccccc1)S2(=O)=O", "Not met"],
  ["COc1ccc(CN(Cc2ccc(F)cc2)S(=O)(=O)c2cc(F)ccc2OCCN(C)C)cc1", "Met"],
  ["CNC(=O)c1ccc(OC)c(S(=O)(=O)N(Cc2ccccc2)Cc2ccccc2)c1", "Not met"],
  ["CNc1ncccc1S(=O)(=O)N(Cc1ccc(F)cc1)Cc1ccc(F)cc1", "Met"],
  ["COc1ccc(OC)c(S(=O)(=O)N(Cc2ccccc2)C2CCCNC2)c1 (centres unmarked)", "Not met"]
]}

====

Quick reference for microsomal CLint at 0.5 μM among some compounds
Assay: in vitro
Conditions: mouse, microsomes, pH 7.4, Microsome Clint Mouse, intrinsic in vitro clearance, liver microsomes
Reported Property: microsomal CLint at 0.5 μM (µL/min/mg)

{"columns": ["Item Smiles", "Numeric Value"],
 "data": [
  ["COc1ccc(C(N)=O)cc1S(=O)(=O)N(Cc1ccccc1)Cc1ccccc1", 1670],
  ["COc1ccc(C(=O)NC2COC2)cc1S(=O)(=O)N(Cc1ccc(F)cc1)Cc1ccc(F)cc1", 395],
  ["COc1ccc(Cl)cc1S(=O)(=O)N(Cc1ccccc1)Cc1ccccc1", 1350],
  ["COc1ccc(S(=O)(=O)N(Cc2ccccc2)Cc2ccccc2)cc1", 2410]
]}

====

Experiment: in vitro
Conditions: human, HepG2 cells
Reported Property: CC50

{"columns": ["Molecule", "Result"],
 "data": [
  ["Nc1ncccc1S(=O)(=O)N(Cc1ccc(F)cc1)Cc1ccc(F)cc1", "> 64 µM"],
  ["COc1ccc(OC)c(S(=O)(=O)N(Cc2ccc(F)cc2)c2ccc(F)cc2)c1", "23.3 µM"],
  ["COc1ccc(OC)c(S(=O)(=O)N(Cc2ccc(F)cc2)Cc2oc(C)nc2C)c1", "> 64 µM"],
  ["COc1ccc(Cl)cc1S(=O)(=O)N(Cc1ccccc1)C(Cc1ccccc1)C(N)=O (stereo not shown)", "39 µM"],
  ["COc1ccc(OC)c(S(=O)(=O)N(Cc2ccc(F)cc2)c2ccc(F)cn2)c1", "16.4 µM"],
  ["O=S(=O)(c1cccnc1OC(F)F)N(Cc1ccc(F)cc1)Cc1ccc(F)cc1", "> 64 µM"],
  ["COc1ncccc1S(=O)(=O)N(Cc1ccc(F)cc1)Cc1ccc(F)cc1", "> 64 µM"],
  ["COc1ccc(C#N)cc1S(=O)(=O)N(Cc1ccc(F)cc1)Cc1ccc(C#N)cc1", "> 64 µM"],
  ["Cn1cccc(S(=O)(=O)N(Cc2ccc(F)cc2)Cc2ccc(F)cc2)c1=O", "> 64 µM"],
  ["COc1ccc(CN2CCCC2)cc1S(=O)(=O)N(Cc1ccc(F)cc1)Cc1ccc(F)cc1", "3.25 µM"],
  ["COc1ccc(S(C)(=O)=O)cc1S(=O)(=O)N(Cc1ccc(F)cc1)Cc1ccc(F)cc1", "41.7 µM"],
  ["O=C1c2ccccc2S(=O)(=O)N(Cc2ccccc2)C1Cc1ccccc1 (stereo not shown)", "> 64 µM"],
  ["COc1ccc(OC)c(S(=O)(=O)N(Cc2ncccn2)Cc2ncccn2)c1", "> 64 µM"],
  ["COc1ccc(C#N)cc1S(=O)(=O)N(Cc1ccc(F)cc1)Cc1oc(C)nc1C", "> 64 µM"],
  ["CNc1ncccc1S(=O)(=O)N(Cc1ccc(F)cc1)Cc1ccc(F)cc1", "16.9 µM"],
  ["O=c1[nH]cccc1S(=O)(=O)N(Cc1ccc(F)cc1)Cc1ccc(F)cc1", "> 64 µM"],
  ["COc1ccc(OC)c(S(=O)(=O)N(Cc2ccc(F)cc2)Cc2ncccn2)c1", "> 64 µM"],
  ["COc1ccc(OC)c(S(=O)(=O)N2CCC(c3ccccc3)CC2)c1", "63.9 µM"],
  ["[2H]C([2H])([2H])Oc1ncccc1S(=O)(=O)N(Cc1ccc(F)cc1)Cc1ccc(F)cc1", "18.9 µM"]
]}

Data credit: paper PMC8126888
